# assayed_system: CYP17 C17,20-lyase (Homo sapiens)
# Construct: These cells have intact testosterone synthesis pathway; host or cells: NCI-H295R human adrenocortical carcinoma cells
# protocol: Cell-based CYP17 C17,20-lyase assay in H295R cells
# details: H295R cells; average of multiple runs; read-out: CYP17 C17,20-lyase average IC50
readout_kind: IC50 (nM)
Expressed in nM, but write only the number.

**Q:** Entry CC(O)(c1ccncc1)c1cnc(-c2ccc(F)cc2)s1 (racemic) [ASN001] : reported IC50 = ?
**A:** 50

**Q:** And what about the molecule C[C@]12CC[C@H](O)CC1=CC[C@@H]1[C@@H]2CC[C@]2(C)C(c3cccnc3)=CC[C@@H]12 [Abiraterone, abiraterone, reference compound] ?
**A:** 2.8

====

Could you please report measured IC50 for the items listed next?
# Tested on: corticosterone synthesis
# protocol: Cell-based functional assay: corticosterone synthesis inhibition in H295R cells
# Design: species or system human
# details: human adrenal NCI-H295R cells; read-out: corticosterone synthesis IC50
Expressed in µM, but write only the number.

**Q:** Recall the recorded IC50 for CC(O)(c1ccncc1)c1cnc(-c2ccc(F)cc2)s1 (racemic) [ASN001] with corticosterone synthesis and state it.
**A:** 2.8

**Q:** And what about the molecule C[C@]12CC[C@H](O)CC1=CC[C@@H]1[C@@H]2CC[C@]2(C)C(c3cccnc3)=CC[C@@H]12 [Abiraterone, abiraterone, reference compound] ?
**A:** 0.065

====

Could you please report measured pIC50 for the items listed next?
# assayed_system: CYP17 C17,20-lyase (Homo sapiens, UniProt P05093)
# Construct: These cells have intact testosterone synthesis pathway; host or cells: NCI-H295R human adrenocortical carcinoma cells
# Sequence (P05093 1-508): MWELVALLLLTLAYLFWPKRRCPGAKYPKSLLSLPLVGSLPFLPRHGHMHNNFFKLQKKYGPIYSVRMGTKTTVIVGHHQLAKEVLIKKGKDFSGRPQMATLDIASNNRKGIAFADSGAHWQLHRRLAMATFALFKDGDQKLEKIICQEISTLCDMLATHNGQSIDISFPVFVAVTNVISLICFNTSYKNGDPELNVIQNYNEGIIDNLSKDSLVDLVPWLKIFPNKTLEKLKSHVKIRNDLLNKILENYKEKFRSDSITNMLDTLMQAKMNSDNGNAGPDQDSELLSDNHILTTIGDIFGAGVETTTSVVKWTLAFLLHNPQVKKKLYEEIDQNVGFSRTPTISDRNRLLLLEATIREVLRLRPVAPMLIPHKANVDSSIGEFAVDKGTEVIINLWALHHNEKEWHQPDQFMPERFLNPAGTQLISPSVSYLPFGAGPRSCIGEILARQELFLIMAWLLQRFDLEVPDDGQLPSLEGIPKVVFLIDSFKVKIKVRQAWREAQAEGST
# protocol: Cell-based CYP17 C17,20-lyase assay in H295R cells
# details: human adrenal NCI-H295R cells; read-out: 17,20-Lyase IC50
# Source text: Cell-Based CYP17 C17,20-Lyase Assay To test the inhibitory effect of compounds on CYP17 C17,20-lyase activity in cells, human adrenocortical carcinoma H295R cells (ATCC) were used. These cells have intact testosterone synthesis pathway and are ideal to study the effect of compounds on various enzymes involved in this pathway. […]
Scale explanation: pIC50 corresponds to minus log10 of a concentration expressed in moles per litre.

**Q:** Entry C[C@]12CC[C@H](O)CC1=CC[C@@H]1[C@@H]2CC[C@]2(C)C(c3cccnc3)=CC[C@@H]12 [Abiraterone, abiraterone, reference compound] : reported pIC50 = ?
**A:** 8.52

**Q:** And what about the molecule CC(O)(c1ccncc1)c1cnc(-c2ccc(F)cc2)s1 (racemic) ?
**A:** 7.30
